All figures here come from the supplement of paper PMC8728848.

Molecular target: Gal(b1-4)GlcNAc(b1-3)Gal(b1-3)GalNAc
Test: glycan array binding signal (z-score within array); higher = stronger binding
Conditions: glycan notation: IUPAC condensed, linker removed
The sample as a whole holds a higher share of the strongest signals than the screen did.
measureName: glycan array binding signal (z-score)
Form field (numeric): enter value without unit.

# input Report glycan array binding signal (z-score) for SSR1 (Sclerotium rolfsii), A0A0M3KL30 (protein) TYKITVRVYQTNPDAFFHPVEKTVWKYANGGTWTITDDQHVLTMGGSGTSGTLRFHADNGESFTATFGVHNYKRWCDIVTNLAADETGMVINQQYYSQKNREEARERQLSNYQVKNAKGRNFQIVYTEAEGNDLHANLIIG please.
# output 1.12
